Collected from the literature: Ki of various compounds toward Carbonic anhydrase 2 (Homo sapiens, UniProt P00918).
readout_name: Ki (nM)

Please review the entries below; each comes with its answer.
>  <compound>
C[C@H](CCC(=O)NCCc1ccc(S(N)(=O)=O)cc1)[C@H]1CC[C@H]2[C@@H]3CC[C@@H]4C[C@H](O)CC[C@]4(C)[C@H]3CC[C@]12C

>  <readout_name>
Ki

>  <test_value>
41

$$$$
>  <compound>
NS(=O)(=O)c1ccc(N/C(S)=N/[C@@H](Cc2ccccc2)C(=O)O)cc1

>  <readout_name>
Ki

>  <test_value>
6

$$$$

[1] CC(=O)N1N=C(c2ccc(OS(N)(=O)=O)cc2)CC1c1ccc(C(F)(F)F)cc1 (centres undefined)
[2] NS(=O)(=O)c1ccc(C(=O)N2CCN(C(=O)c3ccc(Cl)cc3)CC2)cc1
[3] C[C@H](CCC(=O)OCCc1ccc(S(N)(=O)=O)cc1)[C@H]1CC[C@H]2[C@@H]3CC[C@@H]4C[C@H](O)CC[C@]4(C)[C@H]3C[C@H](O)[C@]12C
[4] CCOC(=O)c1ccc(O)cc1O
[5] COc1ccc(S(=O)(=O)N(CC(=O)NO)OCc2ccc(Cl)cc2)cc1
Rank items: key Ki, increasing. Give the labels in the order specified. 1, 2, 3, 4, 5

====

// read-out pKi, gathered for Carbonic anhydrase 2 (Homo sapiens, UniProt P00918) from published studies
pKi: −log10 of the molar value.

// solved cases for pKi follow
>  <sample_smiles>
O=C(Oc1ccc2oc(=O)ccc2c1)c1ccccc1

>  <test_value>
< 5.00

$$$$
>  <sample_smiles>
NS(=O)(=O)c1ccc(C(=O)OCc2ccc(CO[N+](=O)[O-])cc2)cc1

>  <test_value>
6.70

$$$$

Provide pKi, recorded with Carbonic anhydrase 2 (Homo sapiens, UniProt P00918), of O=C(O)c1ccc(N2C(=O)CCC2=O)cc1 < 6.00

Please look at COc1c(C(C)=O)c(=O)oc2ccccc12 and tell me its recorded pKi on Carbonic anhydrase 2 (Homo sapiens, UniProt P00918). < 5.00

====

pKi: −log10 of the molar value.
A compilation of pKi values for Carbonic anhydrase 2 (Homo sapiens, UniProt P00918) from the published literature.

>  <sample_smiles>
CNc1ccc2oc(=O)c3c(C)nn(-c4ccccc4)c3c2c1

>  <target>
Carbonic anhydrase 2 (Homo sapiens, UniProt P00918)

>  <test_value>
< 5.00

$$$$
>  <sample_smiles>
O=c1ccc2ccc(OCc3cn(-c4ccccc4)nn3)cc2o1

>  <target>
Carbonic anhydrase 2 (Homo sapiens, UniProt P00918)

>  <test_value>
< 5.00

$$$$
>  <sample_smiles>
Cc1c(-c2nn(-c3ccccc3)cc2/C=N/O)nnn1-c1ccc(F)cc1

>  <target>
Carbonic anhydrase 2 (Homo sapiens, UniProt P00918)

>  <test_value>
< 4.00

$$$$

Next compound, pKi to be filled in.
Jot down pKi (Carbonic anhydrase 2 (Homo sapiens, UniProt P00918)) of C[C@H](CCC(=O)NCc1ccc(S(N)(=O)=O)cc1)[C@H]1CC[C@H]2[C@@H]3[C@@H](O)C[C@@H]4C[C@H](O)CC[C@]4(C)[C@H]3CC[C@]12C . 7.68

====

// note: Ki values for Carbonic anhydrase 2 (Homo sapiens, UniProt P00918) were reported in different studies
readout_name: Ki (nM)

>  <molecule>
CNC1CCS(=O)(=O)c2sc(S(N)(=O)=O)cc21.Cl (centres undefined)

>  <unit_string>
nM

>  <Ki>
2.3

$$$$
>  <molecule>
NS(=O)(=O)c1ccc(-c2ccc(C(O)c3ccccc3)cc2)cc1 (centres undefined)

>  <unit_string>
nM

>  <Ki>
4.9

$$$$

[I] C[C@H](CCC(=O)Nc1ccc(S(N)(=O)=O)cc1Br)[C@H]1CC[C@H]2[C@@H]3CC[C@@H]4C[C@H](O)CC[C@]4(C)[C@H]3C[C@H](O)[C@]12C
[II] NS(=O)(=O)c1ccc(CC/N=C(\S)Nc2ccc(S(=O)(=O)NCc3ccc(S(N)(=O)=O)cc3)cc2)cc1
Recorded Ki values differ for I and II ; which one is higher? When you have decided, please share the label of that item. II
(II: 46 nM, I: 31 nM)
